assay: NCI Yeast Anticancer Drug Screen. Data for the rad52 strain (AID 147);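 note: 0% = growth of vehicle-treated control cultures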; details: S. cerevisiae rad52 mutant growth inhibition; at 11.0 µM
This is part of a sample that, as a whole, favours compounds with a hit. Of some 79,000 tested, about 15% had one in any assay. Active and inactive are the calls of the source. Cut-off read from the data, not from the text of the source: active = growth inhibition above about 70%; inactive = the rest.
Respond with a class label; see True (active), False (inactive)

IN: Give the logged outcome of this assay for the following compound: CCOC(=S)SSSC(=S)OCC
OUT: True

IN: Give the logged outcome of this assay for the following compound: O=C1CSC(c2ccccc2)N1c1ccc(-c2ccc(-n3c(-c4ccccc4)nc4ccccc4c3=O)cc2)cc1 (configuration not stated)
OUT: False

IN: Give the logged outcome of this assay for the following compound: CC(CN(C)C)C(=O)/C=C/c1ccc(Cl)c(Cl)c1 (configuration not stated)
OUT: False

IN: Give the logged outcome of this assay for the following compound: C/C(=N/NC(=S)Nc1ccccc1C)c1ccccn1
OUT: False

IN: Give the logged outcome of this assay for the following compound: O=C(NCCCCN(CCCNC(=O)C(F)(F)F)Cc1ccccc1)C(F)(F)F
OUT: False

IN: Give the logged outcome of this assay for the following compound: O=C(O)C(=Cc1ccc(-c2ccccc2)cc1)C(=O)O
OUT: False

IN: Give the logged outcome of this assay for the following compound: CNCC(C)CNC
OUT: False

----------
test: NCI Yeast Anticancer Drug Screen. Data for the mlh1 strain (AID 171);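 note: 0% = growth of vehicle-treated control cultures of the same strain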; details: S. cerevisiae mlh1 strain growth inhibition; at 100.0 µM; stronger effect = higher value
This is part of a sample that, as a whole, favours compounds with a hit. Of some 79,000 tested, about 15% had one in any assay.
Returns rule met if the recorded growth inhibition is greater than or equal to 90%, and rule not met otherwise.

Recorded results for 3 compounds are shown here.
{"compound": "Cc1cccc(/C=N/NC(=S)NC2CCCCC2)n1", "assigned class": "rule not met"}
{"compound": "O=[N+]([O-])/C=C/c1cc2ccc3ccccc3c2[nH]1", "assigned class": "rule met"}
{"compound": "CC(C)(C)c1ccc2c(c1)C(=O)c1ccccc1C2=O", "assigned class": "rule not met"}

# ---- query compound ----
IN: Please indicate if the recorded growth inhibition for CC(C)[Si]1(C(C)C)OCC2OC(n3cnc4c(N)ncnc43)C(N)C2O[Si](C(C)C)(C(C)C)O1 (stereo not given) meets or exceeds 90%.
OUT: rule met

----------
assay: NCI Yeast Anticancer Drug Screen. Data for the CLN2oe strain (AID 163);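 note: 0% = growth of vehicle-only control cultures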; conditions: S. cerevisiae CLN2oe strain, at 100.0 µM, stronger effect = higher value
The panel holds about 79,000 compounds, 15% with a hit somewhere; the sample as a whole holds those more often.
Examples of compounds with documented growth inhibition follow.
Give just the numeric value; % need not be written.

Field: example entries. Status: answers known.
{"compound": "O=[N+]([O-])c1ccc2[nH]c3c(-c4ccccc4)nccc3c2c1", "recorded endpoint": "growth inhibition", "numeric value": 96}
{"compound": "O=S(=O)(c1cccc(C(F)(F)F)c1)N1c2ccccc2-n2cccc2C1c1cccnc1 (centres undefined)", "recorded endpoint": "growth inhibition", "numeric value": 90}

IN: // query growth inhibition value for entry NCCOc1ccc(/C(=C(/Cl)c2ccccc2)c2ccccc2)cc1
OUT: 96

IN: // query growth inhibition value for entry Cc1ccnc2c(O)cccc12
OUT: 99

IN: // query growth inhibition value for entry Cc1c(C(=O)/C=C/c2ccccc2[N+](=O)[O-])[n+](=O)c2ccccc2n1[O-]
OUT: 66

IN: // query growth inhibition value for entry O=C1c2ccccc2C(=O)c2c(O)c(NCCNCCO)cc(O)c21
OUT: 93

IN: // query growth inhibition value for entry CC(C)(CN1CCCCC1)C(=O)CC(SCCS(=O)(=O)O)c1ccccc1 (centres undefined)
OUT: 31

IN: // query growth inhibition value for entry CN(C)CCNC(=Cc1ccc2ccccc2[n+]1C)NCCN(C)C
OUT: -1

----------
Experiment: NCI Yeast Anticancer Drug Screen. Data for the mlh1 strain (AID 171);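 note: 0% = growth of vehicle-treated control cultures of the same strain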
Settings: S. cerevisiae mlh1 strain growth inhibition; at 100.0 µM; stronger effect = higher value
Description: Growth inhibition of yeast strains with defined genetic alterations is measured as a screen for potential anti-cancer activity. Selected strains with alterations in DNA damage repair or cell cycle control were exposed to compounds and growth inhibition was measured relative to vehicle treated controls. The strain used in this assay is mlh1
About 79,000 compounds went through this panel and 15% of them were active in at least one assay; those are over-represented in the sample as a whole.
Examples of compounds with documented growth inhibition follow.
Give just the numeric value; % need not be written.

{"compound": "[N-]=[N+]=NC1(c2ccccc2)C(=O)Nc2ccccc2C1=O (stereo not drawn)", "growth inhibition (%)": 17}

IN: // query growth inhibition value for entry COc1cc2c(cc1OC)[C@@H](Nc1ccc(C#N)cc1)C1COC(=O)[C@@H]1C2c1cc(OC)c(O)c(OC)c1 (stereo partly drawn)
OUT: 81

IN: // query growth inhibition value for entry CC(C)(Br)C(=O)/C=C/c1ccccc1
OUT: 27

IN: // query growth inhibition value for entry CCCCCCCCCC(=O)N(CCC)CCC
OUT: 96

IN: // query growth inhibition value for entry OC1(c2ccccc2)C2CC=CC2C1(c1ccccc1)c1ccccc1 (stereo not drawn)
OUT: 45

IN: // query growth inhibition value for entry CC(=O)N1C=Cc2c(c(C)c3c([nH]c4ccccc43)c2C)C1
OUT: 95

IN: // query growth inhibition value for entry CCCN=Cc1cc(Cc2ccc(O)c(C=NCCC)c2)ccc1O
OUT: 96

IN: // query growth inhibition value for entry O=[N+]([O-])c1ccc2[nH]c3c(-c4ccccc4)nccc3c2c1
OUT: 97

IN: // query growth inhibition value for entry Fc1ccc(Nc2ccc3ccccc3c2)cc1
OUT: 90

IN: // query growth inhibition value for entry CCN(CC)CCNc1ccc2nc(C)n3c4ccc(OC)cc4c(=O)c1c23
OUT: 16

IN: // query growth inhibition value for entry CCC(=O)Nc1ccc(N=NN(C)C)cc1
OUT: 99

IN: // query growth inhibition value for entry O=[N+]([O-])c1cccc2nc3ccccc3c(NCCCN3CCCCC3)c12
OUT: 99

IN: // query growth inhibition value for entry NC(N)=NS(=O)(=O)c1ccc(Nc2c3ccccc3nc3c(C(=O)NC(CO)(CO)CO)cccc23)cc1
OUT: 5

IN: // query growth inhibition value for entry Cc1c(Cl)c(C)c(Cl)c(O)c1Cl
OUT: 99

IN: // query growth inhibition value for entry O=C1C[C@H]2[C@H](c3ccc(Br)cc3)[C@H]3C(=O)c4ccccc4NC(=O)[C@@H]3[C@@]2(O)c2ccccc2N1
OUT: 29

----------
Examples of compounds with documented growth inhibition follow.
assay: NCI Yeast Anticancer Drug Screen. Data for the mlh1 rad18 strain (AID 175); settings: S. cerevisiae mlh1 rad18 strain growth inhibition; at 50.0 µM; stronger effect = higher value
Compounds without any hit were thinned out: in the full panel of roughly 79,000, 15% have a hit.
Give just the numeric value; % need not be written.

Field: example entries. Status: answers known.
{"compound": "O=C(Cc1ccccc1)NN1C(=O)C(Cl)C1c1cc(Br)cc(Br)c1O (stereo unspecified)", "growth inhibition, %": 97.2}
{"compound": "CC(=O)Oc1ccc2c(c1)Cc1cc(N3C(=O)C=CC3=O)ccc1-2", "growth inhibition, %": 40.6}

IN: // query growth inhibition value for entry CCN1CCC(O)(c2ccc(Oc3ccc(C)cc3)cc2)C(C(=O)c2ccc(Oc3ccc(C)cc3)cc2)C1 (stereo unspecified)
OUT: 91

IN: // query growth inhibition value for entry CCC(C)COC(=O)Nc1cccc(Cl)c1 (stereo unspecified)
OUT: 97.5

IN: // query growth inhibition value for entry Cc1cccc(/C=N/NC(=S)NC2CCCCC2)n1
OUT: 62.5

IN: // query growth inhibition value for entry CCCCCCCN(CCCCCCC)CC(=O)c1ccc2cc(Cl)c3ccccc3c2c1
OUT: 99.5

IN: // query growth inhibition value for entry O=C(Oc1ccc([N+](=O)[O-])cc1)c1ccc([N+](=O)[O-])cc1
OUT: 86.2

----------
test: NCI Yeast Anticancer Drug Screen. Data for the bub3 strain (AID 167); details: S. cerevisiae bub3 mutant strain, at 3.7 µM, stronger effect = higher value
About 79,000 compounds went through this panel and 15% of them were active in at least one assay; those are over-represented in the sample as a whole.
Examples of compounds with documented growth inhibition follow.
Give just the numeric value; % need not be written.

Field: example entries. Status: answers known.
{"compound": "Oc1ccc(N=Nc2ccc(Cl)cc2)cc1", "numeric value": 65}
{"compound": "CN(C)CCNCCCNc1c2ccccc2nc2cccc([N+](=O)[O-])c12", "numeric value": -11}
{"compound": "O=C1C(CCSc2ccccc2)C(=O)N(c2ccccc2)C1c1ccccc1 (stereo unspecified)", "numeric value": 20}
{"compound": "COC(=O)C1=C(C(=O)OC)CC(n2nnc(C(=O)OC)c2C(=O)OC)=CC1", "numeric value": -4}
{"compound": "CC1=CC(=C(c2ccc(N)c(C)c2)c2ccc(N)c(C)c2)C=CC1=N", "numeric value": 26}

IN: // query growth inhibition value for entry Cc1ccc(NC(=O)CCC(=O)C(C)C(=O)c2ccccc2)c(C)c1 (stereo unspecified)
OUT: -2

The origin of these recorded values is PubChem BioAssay (NCI).
